# Measurement Target: p75NTR NGF receptors (Homo sapiens, UniProt P08138)
# Sequence (P08138 29-427): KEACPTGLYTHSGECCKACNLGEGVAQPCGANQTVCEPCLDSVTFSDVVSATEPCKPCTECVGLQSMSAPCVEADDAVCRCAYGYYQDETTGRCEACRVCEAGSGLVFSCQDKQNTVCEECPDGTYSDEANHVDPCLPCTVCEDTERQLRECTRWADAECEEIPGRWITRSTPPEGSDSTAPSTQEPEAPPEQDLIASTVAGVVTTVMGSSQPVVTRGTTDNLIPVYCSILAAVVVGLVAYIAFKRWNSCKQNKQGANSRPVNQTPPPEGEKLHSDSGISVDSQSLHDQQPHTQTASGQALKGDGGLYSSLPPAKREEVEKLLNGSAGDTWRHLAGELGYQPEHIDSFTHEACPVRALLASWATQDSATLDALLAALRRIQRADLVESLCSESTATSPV
pKd: −log10 of the molar value.

- Compound: "C[C@]12CC[C@H](O)CC1=CCC1C2CC[C@@]2(C)C1CC[C@]21O[C@H]1CO (stereo partly shown)"
  pKd: 9.00

###

# Measurement Target: TrkA NGF receptors (Homo sapiens, UniProt P04629)
# Sequence (P04629 33-796): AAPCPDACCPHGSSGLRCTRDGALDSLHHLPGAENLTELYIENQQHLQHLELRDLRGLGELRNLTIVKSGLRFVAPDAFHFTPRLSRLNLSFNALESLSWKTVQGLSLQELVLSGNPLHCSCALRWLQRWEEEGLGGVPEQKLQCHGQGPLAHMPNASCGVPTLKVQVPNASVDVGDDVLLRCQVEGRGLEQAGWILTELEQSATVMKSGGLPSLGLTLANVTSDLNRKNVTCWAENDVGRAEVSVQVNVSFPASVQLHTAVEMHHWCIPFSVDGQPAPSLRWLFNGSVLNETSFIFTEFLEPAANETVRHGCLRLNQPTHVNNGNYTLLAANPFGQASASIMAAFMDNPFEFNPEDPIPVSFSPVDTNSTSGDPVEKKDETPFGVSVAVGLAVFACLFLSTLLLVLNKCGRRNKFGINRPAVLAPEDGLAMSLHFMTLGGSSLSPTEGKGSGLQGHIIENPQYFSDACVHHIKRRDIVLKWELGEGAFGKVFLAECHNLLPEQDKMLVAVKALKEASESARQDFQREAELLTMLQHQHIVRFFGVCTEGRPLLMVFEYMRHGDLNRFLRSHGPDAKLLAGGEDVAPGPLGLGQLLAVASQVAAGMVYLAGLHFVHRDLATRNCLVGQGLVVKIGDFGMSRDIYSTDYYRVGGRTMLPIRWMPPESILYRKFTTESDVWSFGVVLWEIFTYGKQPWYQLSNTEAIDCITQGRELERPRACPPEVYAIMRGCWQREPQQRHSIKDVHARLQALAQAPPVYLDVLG

- Compound: "C[C@]12CC[C@H](O)CC1=CCC1C2CC[C@@]2(C)C1CC[C@]21O[C@H]1CO (stereo partly shown)"
  Kd [pM]: 290
